# measured.target: T1, recombinant biotinylated CD71 extracellular domain (Sino Biologics) with an N-terminal 6His tag (human, UniProt P02786 89-760, biotinylated (sites not given))
# T1 construct: extracellular domain; also called hCD71; huCD71
# T1 sequence (P02786 other isoform, or with tags, fused parts or gaps): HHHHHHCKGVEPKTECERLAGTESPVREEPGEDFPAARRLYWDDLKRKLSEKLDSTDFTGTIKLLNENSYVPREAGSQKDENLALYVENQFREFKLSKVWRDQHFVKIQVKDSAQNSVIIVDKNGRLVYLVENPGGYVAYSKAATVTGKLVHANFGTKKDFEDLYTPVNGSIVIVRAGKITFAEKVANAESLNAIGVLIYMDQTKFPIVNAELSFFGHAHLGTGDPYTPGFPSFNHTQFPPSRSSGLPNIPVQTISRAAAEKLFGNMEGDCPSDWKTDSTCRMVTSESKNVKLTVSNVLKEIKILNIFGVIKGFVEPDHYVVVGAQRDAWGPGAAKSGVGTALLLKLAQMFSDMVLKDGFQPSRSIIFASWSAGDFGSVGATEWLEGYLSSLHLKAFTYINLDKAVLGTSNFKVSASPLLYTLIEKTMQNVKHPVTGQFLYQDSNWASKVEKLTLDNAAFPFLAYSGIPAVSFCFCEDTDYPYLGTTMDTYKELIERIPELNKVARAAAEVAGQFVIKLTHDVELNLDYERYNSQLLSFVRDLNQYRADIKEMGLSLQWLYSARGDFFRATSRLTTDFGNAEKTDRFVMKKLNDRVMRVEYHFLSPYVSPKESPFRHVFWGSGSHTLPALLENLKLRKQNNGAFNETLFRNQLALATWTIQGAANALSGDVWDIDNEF
# method.notes: screening ELISA
endpoint.name: hCD71
I'd appreciate a reply containing only the number, no unit.

Before answering, review these 3 worked examples.
- binder: "SEQ ID NO 145 (designed binder, FN3 domain) MLPAPKNLVVSRVTEDSARLSWTAPDAAFDSFFIPYAEPSPTGEAIVLTVPGSERSYDLTGLKPGTEYDVWIEGVKGGTLSWPLSAIFTT"
  hCD71: "1.62e+06"
- binder: "SEQ ID NO 199 (designed binder, FN3 domain) MLPAPKNLVVSRVTEDSARLSWTAPDAAFDSFGIRYFEWWDLGEAIVLTVPGSERSYDPTGLKPGTEYNVTIQGVKGGFPSMPLSAIFTT"
  hCD71: "1.46e+06"
- binder: "SEQ ID NO 211 (designed binder, FN3 domain) MLPAPKNLVVSRVTEDSARLSWTAPDAAFDSFWINYYEAQPDGEAIVLTVPGSERSYDLTGLKPGTEYDVEIAGVKGGTASLPLSAIFTT"
  hCD71: "1e+06"

Which value of hCD71 has been reported for SEQ ID NO 126 (designed binder, FN3 domain) MLPAPKNLVVSRVTEDSARLSWTAPDAAFDSFSIDYLELGESGEAIVLTVPGSERSYDLTGLKPGTEYWVYIFGVKGGYPSAPLSAIFTT in the records?
4.49e+06

Data origin, for the record: patent US20210145976A1
